Target entity: PDE4D3 (Homo sapiens, UniProt Q08499)
Construct: purchased BPS 60046
Sequence (Q08499 1-673 isoform Q08499-2): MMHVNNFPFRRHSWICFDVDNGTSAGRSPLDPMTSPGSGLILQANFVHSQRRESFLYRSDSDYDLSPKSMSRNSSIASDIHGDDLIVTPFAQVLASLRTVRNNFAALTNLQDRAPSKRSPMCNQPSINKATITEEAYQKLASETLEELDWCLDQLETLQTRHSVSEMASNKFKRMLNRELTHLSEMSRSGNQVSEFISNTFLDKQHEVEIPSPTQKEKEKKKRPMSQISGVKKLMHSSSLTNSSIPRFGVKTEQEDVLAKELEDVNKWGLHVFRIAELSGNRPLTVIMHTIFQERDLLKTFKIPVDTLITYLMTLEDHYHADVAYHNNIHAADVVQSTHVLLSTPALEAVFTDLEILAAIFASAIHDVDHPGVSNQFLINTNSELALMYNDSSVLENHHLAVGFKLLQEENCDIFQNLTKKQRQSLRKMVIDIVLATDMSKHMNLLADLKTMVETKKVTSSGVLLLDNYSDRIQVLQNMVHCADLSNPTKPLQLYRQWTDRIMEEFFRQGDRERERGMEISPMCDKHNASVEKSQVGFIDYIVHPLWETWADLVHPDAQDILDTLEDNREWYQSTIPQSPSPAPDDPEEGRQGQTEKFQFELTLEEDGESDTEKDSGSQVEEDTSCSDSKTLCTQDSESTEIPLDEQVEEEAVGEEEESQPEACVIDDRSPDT
Protocol description: PDE4 activity inhibition assay, PDE4D3
Assay type: biochemical
Setup conditions: FAM-cAMP substrate, 30 minutes at room temperature
Reported endpoint: IC50 (nM)

Record excerpt, results attached:
{"columns": ["Compound", "Target entity", "IC50 [nM]"],
 "data": [
  ["CCOc1nc(C(CS(C)(=O)=O)N2C(=O)c3cccc(NC(=O)COC)c3C2=O)ccc1OC (stereo not drawn) [Compound 748]", "PDE4D3 (Homo sapiens, UniProt Q08499)", 3.3],
  ["[2H]C([2H])([2H])Oc1ccc([C@H](CS(C)(=O)=O)N2C(=O)c3cc(F)cc(NC(C)=O)c3C2=O)cc1OC([2H])([2H])[2H] [Compound 206]", "PDE4D3 (Homo sapiens, UniProt Q08499)", 997],
  ["[2H]C([2H])([2H])Oc1ccc([C@@H](CS(C)(=O)=O)N2C(=O)c3c(F)ccc(NC(C)=O)c3C2=O)cc1OC([2H])([2H])C([2H])([2H])[2H] [Compound 107]", "PDE4D3 (Homo sapiens, UniProt Q08499)", 4.6],
  ["CCOc1nc([C@H](CS(C)(=O)=O)N2C(=O)c3cc(F)cc(NC(C)=O)c3C2=O)ccc1OC [Compound 709]", "PDE4D3 (Homo sapiens, UniProt Q08499)", 11],
  ["CCOc1cc(C(CS(C)(=O)=O)N2C(=O)c3c(F)ccc(NC(C)=O)c3C2=O)ccc1OC (stereo not drawn) [Compound 101]", "PDE4D3 (Homo sapiens, UniProt Q08499)", 12],
  ["CCOc1nc(C(CS(C)(=O)=O)N2C(=O)c3c(F)ccc(NC(=O)COC)c3C2=O)ccc1OC (stereo not drawn) [Compound 745]", "PDE4D3 (Homo sapiens, UniProt Q08499)", 1.2],
  ["CCOc1nc([C@@H](CS(C)(=O)=O)N2C(=O)c3c(C#N)ccc(NC(C)=O)c3C2=O)ccc1OC [Compound 732]", "PDE4D3 (Homo sapiens, UniProt Q08499)", 1.1],
  ["CCOc1nc(C(CS(C)(=O)=O)N2C(=O)c3c(F)ccc(NC(=O)CN(C)C)c3C2=O)ccc1OC (stereo not drawn) [Compound 751]", "PDE4D3 (Homo sapiens, UniProt Q08499)", 3.1]
]}

a: [2H]C([2H])([2H])Oc1ccc([C@@H](CS(C)(=O)=O)N2C(=O)c3c(F)ccc(NC(=O)C4CC4)c3C2=O)cc1OCC [Compound 118]
b: CCOc1cc(C(CS(C)(=O)=O)N2C(=O)c3c(F)ccc(NC(C)=O)c3C2=O)ccc1OC(F)F (stereo not drawn) [Compound 121]
Query: Please choose the item with the lower IC50 value from this pair: a and b Output the label that corresponds to your choice.
Reply: b
(b: 0.9 nM, a: 2.5 nM)

1: [2H]C([2H])([2H])Oc1ccc([C@@H](CS(C)(=O)=O)N2C(=O)c3c(F)ccc(NC(C)=O)c3C2=O)cc1OCC [Compound 103]
2: [2H]C([2H])([2H])Oc1ccc([C@@H](CS(C)(=O)=O)N2C(=O)c3cc(F)cc(NC(C)=O)c3C2=O)cc1OC([2H])([2H])C([2H])([2H])[2H] [Compound 207]
3: CCOc1cc([C@@H](CS(C)(=O)=O)N2C(=O)c3cc(F)cc(NC(C)=O)c3C2=O)ccc1OC [Compound 202]
4: [2H]C([2H])([2H])Oc1ccc([C@H](CS(C)(=O)=O)N2C(=O)c3cccc(NC(C)=O)c3C2=O)nc1OCC [Compound 712]
5: CCOc1nc(C(CS(C)(=O)=O)N2C(=O)c3c(Cl)ccc(NC(C)=O)c3C2=O)ccc1OC (stereo not drawn) [Compound 728]
Query: Please list these in order of increasing IC50. Thank you! Note for the reader: the ranking is given by listing the labels in the order requested.
Reply: 5, 1, 3, 2, 4
(5: 0.4 nM, 1: 3.7 nM, 3: 5.4 nM, 2: 12 nM, 4: 29 nM)

1: CCOc1nc(C(CS(C)(=O)=O)N2C(=O)c3cccc(NC(=O)COCc4ccccc4)c3C2=O)ccc1OC (stereo not drawn) [Compound 742]
2: [2H]C([2H])([2H])Oc1ccc([C@H](CS(C)(=O)=O)N2C(=O)c3c(F)ccc(NC(C)=O)c3C2=O)nc1OCC [Compound 719]
3: [2H]C([2H])([2H])Oc1ccc([C@H](CS(C)(=O)=O)N2C(=O)c3cc(F)cc(NC(C)=O)c3C2=O)nc1OCC [Compound 725]
4: [2H]C([2H])([2H])Oc1ccc([C@H](CS(C)(=O)=O)N2C(=O)c3c(F)ccc(NC(C)=O)c3C2=O)cc1OC([2H])([2H])[2H] [Compound 106]
5: CCOc1nc([C@@H](CS(C)(=O)=O)N2C(=O)c3cccc(NC(=O)C4CC4)c3C2=O)ccc1OC [Compound 770]
Query: Please list these in order of increasing IC50. Thank you! Note for the reader: the ranking is given by listing the labels in the order requested.
Reply: 5, 1, 2, 3, 4

###

Target entity: PDE4D3 (Homo sapiens, UniProt Q08499)
Construct: purchased BPS 60046
Protocol description: PDE4 activity inhibition assay, PDE4D3
Assay type: biochemical
Setup conditions: FAM-cAMP substrate, 30 minutes at room temperature
Reported endpoint: IC50 (nM)

{"columns": ["Compound", "IC50, nM"],
 "data": [
  ["CCOc1cc([C@@H](CS(C)(=O)=O)N2C(=O)c3ccc(F)c(NC(C)=O)c3C2=O)ccc1OC [Compound 302]", 22],
  ["[2H]C([2H])([2H])Oc1ccc([C@@H](CS(C)(=O)=O)N2C(=O)c3cc(F)cc(NC(C)=O)c3C2=O)nc1OCC [Compound 724]", 3.1],
  ["CCOc1nc([C@@H](CS(C)(=O)=O)N2C(=O)c3c(F)ccc(NC(C)=O)c3C2=O)ccc1OC [Compound 705]", 0.53],
  ["CCOc1nc([C@@H](CS(C)(=O)=O)N2C(=O)c3cccc(NC(C)=O)c3C2=O)ccc1OC [Compound 702]", 4],
  ["[2H]C([2H])([2H])Oc1ccc([C@@H](CS(C)(=O)=O)N2C(=O)c3cccc(NC(=O)C4CC4)c3C2=O)nc1OCC [Compound 773]", 1.2]
]}

A: CCOc1cc([C@@H](CS(C)(=O)=O)N2C(=O)c3c(C#N)ccc(NC(C)=O)c3C2=O)ccc1OC [Compound 115]
B: [2H]C([2H])([2H])Oc1ccc([C@@H](CS(C)(=O)=O)N2C(=O)c3c(F)ccc(NC(C)=O)c3C2=O)nc1OCC [Compound 718]
Query: Between the entries labelled A and B , which has a larger IC50 value on record? Output the label that corresponds to your choice.
Reply: A

###

Target entity: PDE4A1A (Homo sapiens)
Construct: purchased BPS 60040
Sequence (P27815 1-647 isoform P27815-4): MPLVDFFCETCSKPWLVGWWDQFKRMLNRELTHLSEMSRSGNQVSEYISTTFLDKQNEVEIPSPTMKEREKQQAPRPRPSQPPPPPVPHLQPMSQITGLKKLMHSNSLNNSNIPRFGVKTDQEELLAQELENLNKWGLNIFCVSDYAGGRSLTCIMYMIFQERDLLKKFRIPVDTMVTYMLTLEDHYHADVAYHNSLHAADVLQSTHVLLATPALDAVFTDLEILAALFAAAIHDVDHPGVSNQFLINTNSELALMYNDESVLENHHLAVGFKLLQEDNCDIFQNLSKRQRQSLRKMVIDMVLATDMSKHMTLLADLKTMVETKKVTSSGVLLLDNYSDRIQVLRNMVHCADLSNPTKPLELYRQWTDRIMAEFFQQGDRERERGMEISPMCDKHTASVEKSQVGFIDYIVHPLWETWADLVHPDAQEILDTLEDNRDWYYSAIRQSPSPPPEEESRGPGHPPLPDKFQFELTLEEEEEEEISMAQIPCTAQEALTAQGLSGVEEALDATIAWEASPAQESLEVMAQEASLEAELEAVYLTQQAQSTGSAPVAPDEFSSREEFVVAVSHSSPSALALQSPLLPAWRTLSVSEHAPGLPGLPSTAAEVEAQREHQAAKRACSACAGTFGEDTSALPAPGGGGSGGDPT
Protocol description: PDE4 activity inhibition assay, PDE4A1A
Assay type: biochemical
Setup conditions: FAM-cAMP substrate, 30 minutes at room temperature
Reported endpoint: IC50 (nM)

{"columns": ["Compound", "Target entity", "IC50 [nM]"],
 "data": [
  ["[2H]C([2H])([2H])Oc1ccc([C@@H](CS(C)(=O)=O)N2C(=O)c3cc(F)cc(NC(C)=O)c3C2=O)cc1OCC [Compound 203]", "PDE4A1A (Homo sapiens)", 22]
]}

1: CCOc1cc(C(CS(C)(=O)=O)N2C(=O)c3c(F)ccc(NC(C)=O)c3C2=O)ccc1OC (stereo not shown) [Compound 101]
2: CCOc1nc([C@@H](CS(C)(=O)=O)N2C(=O)c3c(C#N)ccc(NC(C)=O)c3C2=O)ccc1OC [Compound 732]
Query: Between the entries labelled 1 and 2 , which has a larger IC50 value on record? Output the label that corresponds to your choice.
Reply: 1

I: CCOc1nc([C@H](CS(C)(=O)=O)N2C(=O)c3c(F)ccc(NC(C)=O)c3C2=O)ccc1OC [Compound 706]
II: CCOc1cc([C@@H](CS(C)(=O)=O)N2C(=O)c3c(Cl)ccc(NC(C)=O)c3C2=O)ccc1OC [Compound 111]
III: [2H]C([2H])([2H])Oc1ccc([C@@H](CS(C)(=O)=O)N2C(=O)c3cc(F)cc(NC(C)=O)c3C2=O)cc1OC([2H])([2H])C([2H])([2H])[2H] [Compound 207]
IV: [2H]C([2H])([2H])Oc1ccc([C@@H](CS(C)(=O)=O)N2C(=O)c3c(F)ccc(NC(C)=O)c3C2=O)nc1OCC [Compound 718]
Query: Please list these in order of increasing IC50. Thank you! Note for the reader: the ranking is given by listing the labels in the order requested.
Reply: IV, II, I, III
(IV: 0.9 nM, II: 1.3 nM, I: 6.5 nM, III: 20 nM)
